// % inhibition lookup, one value per entry
- measurement.target: T1, cMetSEMA-567His8 (human, UniProt P08581 25-567, limits assumed)
- T1 construct: In the TR-FRET assay detected by anti-6xhis Europium3+; also called cMetSEMAHis; SEMA domain of c-Met; not shown: C-terminal His tag; the text says His9, the construct name says His8
- T1 sequence (P08581 25-567 limits assumed, form in doubt): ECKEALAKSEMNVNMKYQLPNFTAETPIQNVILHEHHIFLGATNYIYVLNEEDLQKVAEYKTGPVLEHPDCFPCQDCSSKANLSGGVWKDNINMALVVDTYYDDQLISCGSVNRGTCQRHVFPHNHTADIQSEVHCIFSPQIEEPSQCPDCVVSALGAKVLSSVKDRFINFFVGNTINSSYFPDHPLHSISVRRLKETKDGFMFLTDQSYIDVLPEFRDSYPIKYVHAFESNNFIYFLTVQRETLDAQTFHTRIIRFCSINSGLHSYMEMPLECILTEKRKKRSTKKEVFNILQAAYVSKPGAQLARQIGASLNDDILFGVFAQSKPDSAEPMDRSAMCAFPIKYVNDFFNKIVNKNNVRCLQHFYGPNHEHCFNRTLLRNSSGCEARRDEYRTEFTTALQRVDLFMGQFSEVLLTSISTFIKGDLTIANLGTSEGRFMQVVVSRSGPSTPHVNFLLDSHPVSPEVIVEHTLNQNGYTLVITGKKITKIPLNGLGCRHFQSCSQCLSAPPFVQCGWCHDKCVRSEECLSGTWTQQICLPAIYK
- procedure.summary: TR-FRET; displacement of AlexaFluor-647-HGF from cMetSEMA-567His8
Lab note: write values as number then unit, every time.

Input: Look up % inhibition for this binder: IgG1-1016-069 (antibody, V domains shown, also called clone 069; TH1016-069) VH: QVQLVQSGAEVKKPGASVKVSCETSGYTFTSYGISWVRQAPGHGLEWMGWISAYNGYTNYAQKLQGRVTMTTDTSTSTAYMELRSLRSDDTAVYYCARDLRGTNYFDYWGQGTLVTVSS VL: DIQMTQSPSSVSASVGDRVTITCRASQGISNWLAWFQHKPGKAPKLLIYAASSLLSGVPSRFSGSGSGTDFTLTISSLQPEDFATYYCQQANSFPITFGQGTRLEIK
Output: 97%

Input: // query % inhibition value for entry anti-c-Met HuMab 181 (IgG1) (antibody, V domains shown, also called TH1016-181; PC1016-181) VH: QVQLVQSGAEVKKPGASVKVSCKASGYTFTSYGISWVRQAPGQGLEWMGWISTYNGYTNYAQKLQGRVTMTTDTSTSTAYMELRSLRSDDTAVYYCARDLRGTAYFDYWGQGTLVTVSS VL: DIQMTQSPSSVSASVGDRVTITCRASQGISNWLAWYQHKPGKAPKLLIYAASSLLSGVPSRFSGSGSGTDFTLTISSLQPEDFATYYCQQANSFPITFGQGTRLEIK
Output: 93%

Input: Entry IgG1-1016-022 (antibody, V domains shown, also called TH1016-022; PC1016-022) VH: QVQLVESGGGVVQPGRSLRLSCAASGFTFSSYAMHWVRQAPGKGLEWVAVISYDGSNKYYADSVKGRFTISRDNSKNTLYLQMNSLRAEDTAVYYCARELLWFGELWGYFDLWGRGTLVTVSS VL: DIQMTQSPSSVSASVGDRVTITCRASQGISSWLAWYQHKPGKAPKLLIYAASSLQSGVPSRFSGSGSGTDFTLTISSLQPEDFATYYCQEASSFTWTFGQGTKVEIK has what % inhibition?
Output: 77%
